test: Plasma pharmacokinetics in patients; type: in vivo, human; details: human, plasma, intravenous
reported-property: half-life

Request: Return half-life for the following compound: Cc1cc(Nc2cc(N3CCN(C)CC3)nc(Sc3ccc(NC(=O)C4CC4)cc3)n2)[nH]n1
Response: 6.6 to 10.2 h

====

experiment: Plasma pharmacokinetics in patients; assay type: in vivo, human; details: human, plasma, intravenous, 64 mg/m^2/hr
reported-property: Cmax (µM)
Report the figure in µM without appending any unit label.

Request: Identify measured Cmax corresponding to Cc1cc(Nc2cc(N3CCN(C)CC3)nc(Sc3ccc(NC(=O)C4CC4)cc3)n2)[nH]n1
Response: 4.01

====

assay: Plasma pharmacokinetics in patients; format: in vivo, human; settings: human, plasma, intravenous, 64 mg/m2
reported-property: clearance (mL/min)
State the answer as a number, implicitly in mL/min.

Request: Specify reported clearance for the compound shown: Cc1cc(Nc2cc(N3CCN(C)CC3)nc(Sc3ccc(NC(=O)C4CC4)cc3)n2)[nH]n1
Response: 1270

====

experiment: Plasma pharmacokinetics in patients; type: in vivo, human; details: human, plasma, intravenous, 16 mg/m2
reported-property: half-life (h)
Give just the number in h; leave the unit off.

Request: Tell me its half-life given Cc1cc(Nc2cc(N3CCN(C)CC3)nc(Sc3ccc(NC(=O)C4CC4)cc3)n2)[nH]n1 as the entry.
Response: 8.5

====

assay: Plasma pharmacokinetics in patients; format: in vivo, human; details: human, plasma, intravenous, 96 mg/m2
reported-property: clearance
Write the numeric value and append its unit.

Request: Read the entry Cc1cc(Nc2cc(N3CCN(C)CC3)nc(Sc3ccc(NC(=O)C4CC4)cc3)n2)[nH]n1 [MK-0457] and write its reported clearance.
Response: 893 mL/min

====

test: Plasma pharmacokinetics in patients; type: in vivo, human; details: human, plasma, intravenous, 8 mg/m2
reported-property: Vd (L)
Reply numerically in L, unit not repeated.

Request: Fill in Vd for record Cc1cc(Nc2cc(N3CCN(C)CC3)nc(Sc3ccc(NC(=O)C4CC4)cc3)n2)[nH]n1 [MK-0457]
Response: 735

====

experiment: Plasma pharmacokinetics in patients; format: in vivo, human; settings: human, plasma, intravenous, 32 mg/m2
reported-property: half-life (h)
Report the figure in h without appending any unit label.

Request: Output half-life of Cc1cc(Nc2cc(N3CCN(C)CC3)nc(Sc3ccc(NC(=O)C4CC4)cc3)n2)[nH]n1
Response: 10.2

====

assay: Plasma pharmacokinetics in patients; format: in vivo, human; conditions: human, plasma, intravenous, 96 mg/m2
reported-property: Vd (L)
Give the value, in units of L, as a plain number.

Request: Write down Vd measured for item Cc1cc(Nc2cc(N3CCN(C)CC3)nc(Sc3ccc(NC(=O)C4CC4)cc3)n2)[nH]n1
Response: 248

====

assay: Plasma pharmacokinetics in patients; assay type: in vivo, human; details: human, plasma, intravenous, 8 mg/m2
reported-property: half-life (h)
Give just the numeric value; h need not be written.

Request: Supply half-life value. Item: Cc1cc(Nc2cc(N3CCN(C)CC3)nc(Sc3ccc(NC(=O)C4CC4)cc3)n2)[nH]n1
Response: 9.3

====

assay: Plasma pharmacokinetics in patients; type: in vivo, human; settings: human, plasma, intravenous, 64 mg/m2
reported-property: Vd (L)
Answer in L, number only, no unit symbol.

Request: Could you please provide reported Vd for Cc1cc(Nc2cc(N3CCN(C)CC3)nc(Sc3ccc(NC(=O)C4CC4)cc3)n2)[nH]n1 ? Thanks!
Response: 301
